- method: growth inhibitors of tim10-1 mutant yeast, primary screen, luminescence, uHTS (AID 463190);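 further: mutant grown at 25 °C; 0% = DMSO wells with yeast and 100% = wells holding no yeast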
- cond: S. cerevisiae tim10-1 ts strain growth, BacTiter-Glo, 24 h; at 20 µM
Among all 330,000 compounds or so, about 7,300 (2.2%) were called active.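 How the source made its calls: active means inhibition of at least 40%; inactive means the rest.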 The full list was thinned out, with actives kept by preference.
Pick one: true (1) = active, false (0) = inactive

Below, 4 compounds whose answers are already recorded.
Qu. Fill in: this test's call for FC(F)(F)c1ccc(CN2C[C@@H]3C(c4ccccc4)C4(c5ccccc5)CC3(C4)[C@H]2c2ccccc2)cc1 (some centres undefined) is ___
Ans. false (0)

Qu. Fill in: this test's call for CCOc1ccc(C2C(C#N)=C(N)N(N(C)C)C3=C2C(=O)CCC3)cc1 (centres undefined) is ___
Ans. false (0)

Qu. Fill in: this test's call for COc1ccc2oc(C(=O)OCC(=O)N(CC(C)C)c3c(N)n(Cc4ccccc4)c(=O)[nH]c3=O)c(C)c2c1 is ___
Ans. false (0)

Qu. Fill in: this test's call for O=C(CSc1ccc(-c2ccco2)nn1)Nc1cccc(F)c1 is ___
Ans. false (0)

---
Qu. Fill in: this test's call for Cc1ccc(C(=O)NNC(=O)CSc2nnc3ccccn23)cc1 is ___
Ans. false (0)

Qu. Fill in: this test's call for Cc1ccc2c(c1)N(CCCC(=O)NCc1cccnc1)C(=O)CO2 is ___
Ans. false (0)

The reported measurements were obtained from PubChem BioAssay AID463190.
